Reported pIC50 values are given for each entry in this list.
Study System: Integrin alpha-5/beta-1 (Homo sapiens, UniProt P05556+P08648)
Sequence (P05556 21-798 limits assumed): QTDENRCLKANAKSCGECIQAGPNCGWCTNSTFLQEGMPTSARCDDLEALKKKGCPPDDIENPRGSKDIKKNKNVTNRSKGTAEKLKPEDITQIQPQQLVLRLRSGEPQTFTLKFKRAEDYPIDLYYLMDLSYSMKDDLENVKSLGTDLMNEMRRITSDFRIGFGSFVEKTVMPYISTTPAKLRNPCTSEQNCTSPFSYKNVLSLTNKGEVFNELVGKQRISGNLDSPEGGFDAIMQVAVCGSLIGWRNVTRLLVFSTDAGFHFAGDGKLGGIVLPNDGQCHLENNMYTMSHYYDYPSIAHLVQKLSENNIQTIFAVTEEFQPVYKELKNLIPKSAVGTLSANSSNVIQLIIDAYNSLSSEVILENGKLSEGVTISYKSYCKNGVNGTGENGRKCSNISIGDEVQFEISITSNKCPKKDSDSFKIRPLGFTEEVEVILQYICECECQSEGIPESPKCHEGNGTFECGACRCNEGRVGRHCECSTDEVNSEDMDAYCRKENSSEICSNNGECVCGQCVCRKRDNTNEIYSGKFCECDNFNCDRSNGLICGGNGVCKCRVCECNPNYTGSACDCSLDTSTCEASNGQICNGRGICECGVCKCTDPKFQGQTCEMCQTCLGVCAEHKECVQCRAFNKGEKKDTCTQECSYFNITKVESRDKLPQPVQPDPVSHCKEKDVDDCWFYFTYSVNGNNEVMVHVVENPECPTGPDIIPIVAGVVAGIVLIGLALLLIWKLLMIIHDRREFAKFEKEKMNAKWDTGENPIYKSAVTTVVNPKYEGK
Sequence (P08648 42-894 limits assumed): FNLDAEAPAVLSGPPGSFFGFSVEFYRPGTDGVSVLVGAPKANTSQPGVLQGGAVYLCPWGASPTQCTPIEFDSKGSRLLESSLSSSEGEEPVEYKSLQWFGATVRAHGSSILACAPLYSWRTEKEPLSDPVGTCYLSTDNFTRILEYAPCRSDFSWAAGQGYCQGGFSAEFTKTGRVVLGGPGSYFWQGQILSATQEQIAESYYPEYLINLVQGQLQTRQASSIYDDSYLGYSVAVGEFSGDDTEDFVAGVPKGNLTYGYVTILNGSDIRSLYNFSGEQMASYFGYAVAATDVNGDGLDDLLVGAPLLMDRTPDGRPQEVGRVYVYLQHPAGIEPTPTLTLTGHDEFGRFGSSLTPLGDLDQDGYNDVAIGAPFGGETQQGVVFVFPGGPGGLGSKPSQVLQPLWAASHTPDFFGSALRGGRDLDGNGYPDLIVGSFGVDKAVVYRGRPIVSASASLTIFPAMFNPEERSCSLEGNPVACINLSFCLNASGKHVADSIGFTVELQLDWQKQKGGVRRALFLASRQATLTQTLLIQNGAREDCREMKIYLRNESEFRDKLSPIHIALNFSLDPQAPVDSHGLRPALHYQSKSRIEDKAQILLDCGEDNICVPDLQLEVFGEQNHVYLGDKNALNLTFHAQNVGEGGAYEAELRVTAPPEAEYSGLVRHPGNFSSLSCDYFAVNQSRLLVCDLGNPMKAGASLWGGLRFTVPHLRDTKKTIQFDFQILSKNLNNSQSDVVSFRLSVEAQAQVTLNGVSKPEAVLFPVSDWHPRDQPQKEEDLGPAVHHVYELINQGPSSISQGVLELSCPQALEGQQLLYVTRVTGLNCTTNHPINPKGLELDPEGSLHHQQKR
Sequence (P08648 895-1049 limits assumed): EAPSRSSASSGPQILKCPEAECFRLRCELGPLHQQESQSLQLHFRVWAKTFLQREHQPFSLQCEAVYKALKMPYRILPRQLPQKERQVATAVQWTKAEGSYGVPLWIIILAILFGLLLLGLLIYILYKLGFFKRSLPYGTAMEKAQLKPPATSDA
Protocol Notes: Inhibition of Integrin alpha5beta1 mediated cellular adhesion in human HCT-116 cells incubated for 24 hrs in presence of Ca2+ and Mg2+ by real-time cell analysis
Format: cell-based
pIC50: −log10 of the molar value.
Value Type: pIC50

> print(dat)
                               smiles.input                              study.system  lt.gt.eq  reported
1  N=C(N)NCCCCC(=O)Nc1ccc(C[C@H](NC(=O)[C@@H]2CCCN2S(=O)(=O)c2ccccc2)C(=O)O)cc1  Integrin alpha-5/beta-1 (Homo sapiens, UniProt P05556+P08648)         =      6.00
2  Cc1ccc(Cl)c(C(=O)N[C@@H](CNC(=O)Cn2c(=O)[nH]c3nc(C)c(F)cc32)C(=O)O)c1F  Integrin alpha-5/beta-1 (Homo sapiens, UniProt P05556+P08648)         <      4.50

* * *

Study System: Integrin alpha-V/beta-5 (Homo sapiens, UniProt P06756+P18084)
Sequence (P06756 31-889 limits assumed): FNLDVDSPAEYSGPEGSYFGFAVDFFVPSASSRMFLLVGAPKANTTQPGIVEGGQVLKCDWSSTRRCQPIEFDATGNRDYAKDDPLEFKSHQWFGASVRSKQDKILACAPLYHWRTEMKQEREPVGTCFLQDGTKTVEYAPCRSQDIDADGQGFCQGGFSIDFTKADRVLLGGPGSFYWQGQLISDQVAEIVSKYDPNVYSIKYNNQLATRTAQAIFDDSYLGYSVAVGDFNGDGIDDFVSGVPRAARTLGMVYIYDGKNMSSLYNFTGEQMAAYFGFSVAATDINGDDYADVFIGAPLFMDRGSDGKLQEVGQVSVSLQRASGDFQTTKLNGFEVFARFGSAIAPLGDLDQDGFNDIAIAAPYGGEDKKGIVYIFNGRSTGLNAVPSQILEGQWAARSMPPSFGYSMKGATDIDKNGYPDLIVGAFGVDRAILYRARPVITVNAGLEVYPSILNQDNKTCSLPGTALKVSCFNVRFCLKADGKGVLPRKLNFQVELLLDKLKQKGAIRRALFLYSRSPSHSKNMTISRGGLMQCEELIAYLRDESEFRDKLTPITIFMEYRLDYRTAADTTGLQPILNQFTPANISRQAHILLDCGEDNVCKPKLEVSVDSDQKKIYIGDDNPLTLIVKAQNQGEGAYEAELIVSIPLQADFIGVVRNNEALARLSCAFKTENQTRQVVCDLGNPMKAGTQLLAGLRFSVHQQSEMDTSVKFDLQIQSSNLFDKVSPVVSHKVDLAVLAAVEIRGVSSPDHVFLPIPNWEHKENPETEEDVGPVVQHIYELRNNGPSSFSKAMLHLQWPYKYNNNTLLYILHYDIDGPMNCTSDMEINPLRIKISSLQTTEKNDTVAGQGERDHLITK
Sequence (P06756 891-1048 limits assumed): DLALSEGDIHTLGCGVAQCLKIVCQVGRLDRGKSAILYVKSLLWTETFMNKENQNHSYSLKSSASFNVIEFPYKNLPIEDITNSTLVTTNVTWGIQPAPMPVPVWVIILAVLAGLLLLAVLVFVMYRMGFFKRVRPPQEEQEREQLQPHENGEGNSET
Sequence (P18084 24-799 limits assumed): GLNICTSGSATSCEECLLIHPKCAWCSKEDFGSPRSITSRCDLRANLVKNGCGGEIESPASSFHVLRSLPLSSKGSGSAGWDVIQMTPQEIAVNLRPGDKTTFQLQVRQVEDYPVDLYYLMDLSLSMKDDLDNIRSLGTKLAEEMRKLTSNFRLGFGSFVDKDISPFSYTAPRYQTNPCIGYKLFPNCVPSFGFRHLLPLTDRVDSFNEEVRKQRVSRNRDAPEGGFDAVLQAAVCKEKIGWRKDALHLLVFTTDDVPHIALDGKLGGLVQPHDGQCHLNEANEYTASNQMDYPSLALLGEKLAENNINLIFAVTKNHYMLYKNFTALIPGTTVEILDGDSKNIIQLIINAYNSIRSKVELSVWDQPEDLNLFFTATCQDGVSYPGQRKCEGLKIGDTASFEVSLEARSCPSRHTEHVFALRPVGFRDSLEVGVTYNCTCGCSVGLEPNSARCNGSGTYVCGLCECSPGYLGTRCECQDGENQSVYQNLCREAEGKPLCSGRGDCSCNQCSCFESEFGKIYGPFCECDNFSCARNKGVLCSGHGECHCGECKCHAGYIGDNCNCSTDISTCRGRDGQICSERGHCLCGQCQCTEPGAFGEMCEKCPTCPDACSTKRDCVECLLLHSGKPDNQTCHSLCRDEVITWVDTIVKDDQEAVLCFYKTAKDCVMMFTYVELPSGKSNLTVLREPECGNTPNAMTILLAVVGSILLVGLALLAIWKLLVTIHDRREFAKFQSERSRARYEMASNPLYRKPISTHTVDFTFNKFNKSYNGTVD
Protocol Notes: Inhibition of recombinant human Integrin alphaVbeta5 using TMB as substrate incubated for 2 hrs in presence of fibronectin by ELISA
Type: protein-complex assay
Value Type: IC50

> print(dat)
                                   compound   reported
1  Cc1ccc(Cl)c(C(=O)N[C@@H](CNC(=O)Cn2c(=O)[nH]c3ncccc32)C(=O)O)c1F    3.98 µM
2  O=C(NC(Cc1ccccc1)C(=O)O)c1ccc(Cl)cc1Cl (centres undefined)  > 31.6 µM
3  O=C(NC(CNc1ccccc1)C(=O)O)c1c(Cl)cccc1Cl (centres undefined)    > 10 µM
4  O=C(Cn1c(=O)[nH]c2ccccc21)NC[C@H](NC(=O)c1c(Cl)cccc1Cl)C(=O)O    > 10 µM

* * *

Study System: Integrin alpha-V/beta-1 (Homo sapiens, UniProt P05556+P06756)
Sequence (P05556 21-798 limits assumed): as the sequence (P05556 21-798 limits assumed) above
Sequence (P06756 31-889 limits assumed): as the sequence (P06756 31-889 limits assumed) above
Sequence (P06756 891-1048 limits assumed): as the sequence (P06756 891-1048 limits assumed) above
Protocol Notes: Inhibition of human Integrin alphaVbeta1 expressed in CHO-B2 cell cocultured with TGF-beta expressing Mv1Lu cells assessed as inhibition of integrin alphaVbeta1 mediated TGF-beta transactivation by luciferase assay
Format: cell-based
Value Type: IC50 (nM)

> print(dat)
                               smiles.input                              study.system  value.type  reported
1  N=C(N)NCCCCC(=O)Nc1ccc(C[C@H](NC(=O)[C@@H]2CCCN2S(=O)(=O)c2ccccc2)C(=O)O)cc1  Integrin alpha-V/beta-1 (Homo sapiens, UniProt P05556+P06756)        IC50        10
2  Cc1ccc(Cl)c(C(=O)N[C@@H](CNC(=O)Cn2c(=O)[nH]c3nc(C)c(F)cc32)C(=O)O)c1F  Integrin alpha-V/beta-1 (Homo sapiens, UniProt P05556+P06756)        IC50      43.7

* * *

Protocol Notes: Clearance in Wistar-Han rat at 1 mg/kg,iv administration
Assay type: ADME, organism-based
Condition Set: in vivo
Value Type: clearance (mL/min/kg)

> print(dat)
                               smiles.input  unit.abbreviation  reported
1  Cc1ccc(Cl)c(C(=O)N[C@@H](CNC(=O)Cn2c(=O)[nH]c3nc(C)c(F)cc32)C(=O)O)c1F          mL/min/kg      0.38
